# credit: ChEMBL document CHEMBL1926637

test system: HCT-116; assay: Cytotoxicity against human HCT116 cells after 48 hrs by sulforhodamine B assay; assay type: functional, cell-based; conditions: HCT-116, 48 h
pIC50: −log10 of the molar value.
Label scheme for pIC50: lower than 5 is Not met, 5 and above is Met.

Request: Could you tell me if the measured pIC50 of N#C/C(C(=O)Nc1ccccc1)=c1/s/c(=C\c2ccccc2)c(=O)n1-c1ccccc1 reaches 5 or more?
Response: Not met

Request: For this compound, is measured pIC50 5 or higher? N#C/C(C(=O)Nc1ccc(Cl)cc1)=c1/s/c(=C\c2ccccc2)c(=O)n1-c1ccccc1
Response: Not met

Request: Threshold query (pIC50 >= 5) on N#C/C(C(=O)Nc1ccccc1)=C1/S/C(=N\Nc2ccccc2)C(=O)N1c1ccccc1
Response: Not met

Request: Is pIC50 at least 5? Consider COc1cccc2c1C(=O)c1c(O)c3c(c(O)c1C2=O)C[C@@](O)(C(=O)CO)C[C@@H]3O[C@H]1C[C@H](N)[C@H](O)[C@H](C)O1
Response: Met

Request: State whether the measured pIC50 reaches 5, counting equality as reaching it, for N#C/C(C(=O)Nc1ccc(Cl)cc1)=c1/s/c(=C\c2ccccc2O)c(=O)n1-c1ccccc1
Response: Met

Request: Identify whether the reported pIC50 of the following compound is 5 or greater: Cc1ccc(NC(=O)/C(C#N)=c2\s/c(=C\c3ccccc3O)c(=O)n2-c2ccccc2)cc1
Response: Met

Request: Threshold query (pIC50 >= 5) on Cc1ccc(NC(=O)/C(C#N)=c2\s/c(=C\c3ccc(Cl)cc3)c(=O)n2-c2ccccc2)cc1
Response: Not met

Request: Hi, just wondering whether COc1ccc(/C=c2\s/c(=C(/C#N)C(=O)Nc3ccccc3)n(-c3ccccc3)c2=O)cc1 shows pIC50 of 5 or higher.
Response: Met

Request: Does the reported pIC50 for COc1ccc(N/N=C2\S/C(=C(/C#N)C(=O)Nc3ccccc3)N(c3ccccc3)C2=O)cc1 fall at or above the 5 mark?
Response: Not met

Request: Quick check: does COc1ccc(N/N=C2\S/C(=C(/C#N)C(=O)Nc3ccc(C)cc3)N(c3ccccc3)C2=O)cc1 have pIC50 greater than or equal to 5?
Response: Not met

Request: Confirm if pIC50 reported for the compound Cc1ccc(NC(=O)/C(C#N)=C2\S/C(=N\Nc3ccccc3)C(=O)N2c2ccccc2)cc1 is 5 or above.
Response: Not met

Request: Check the entry Cc1ccc(NC(=O)/C(C#N)=C2\S/C(=N\Nc3ccc(Cl)cc3)C(=O)N2c2ccccc2)cc1 : does pIC50 equal or exceed 5?
Response: Not met

====

Give measured pIC50 for each item. Keep answers brief.
test system: HCT-116; test: Cytotoxicity against human HCT116 cells after 48 hrs by sulforhodamine B assay; type: functional, cell-based; conditions: HCT-116, 48 h
On this scale, pIC50 is minus log10 of a concentration expressed in M (mol/L).

pIC50 reported for this molecule Cc1ccc(NC(=O)/C(C#N)=c2\s/c(=C\c3ccccc3)c(=O)n2-c2ccccc2)cc1 : 4.96

Just so you know, measured pIC50 for COc1ccc(/C=c2\s/c(=C(/C#N)C(=O)Nc3ccc(C)cc3)n(-c3ccccc3)c2=O)cc1 came out at 5.00

Reported pIC50 of N#C/C(C(=O)Nc1ccc(Cl)cc1)=c1/s/c(=C\c2ccc(Cl)cc2)c(=O)n1-c1ccccc1 : 5.04

Entry N#C/C(C(=O)Nc1ccccc1)=c1/s/c(=C\c2ccccc2O)c(=O)n1-c1ccccc1 ; pIC50 = 5.11
